- ASSAYED_TARGET: T1, TNFR1 (Homo sapiens, UniProt P19438)
- T1 chain: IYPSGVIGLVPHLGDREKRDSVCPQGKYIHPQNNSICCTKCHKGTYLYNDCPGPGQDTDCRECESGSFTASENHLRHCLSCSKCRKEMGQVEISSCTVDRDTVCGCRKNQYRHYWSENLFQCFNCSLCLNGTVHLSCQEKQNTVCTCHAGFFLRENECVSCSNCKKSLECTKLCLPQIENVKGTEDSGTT
- ASSAY_COMMENT: yeast display SC50
apparent Kd (screen) listing for selected binders.
QUANTITY_NAME: apparent Kd (screen) (nM)

1. E95M (designed binder) MTLQELLREEALRRAEAEAFRYALELLAEKFPEQKEYLLDLAEEIESQIRSLSGVDVEDVRKFLDKEWAWVKELLAEHPAELAEVEAARAARLAMLRAEVEAKVAA :: 0.446
2. S51F (designed binder) MTLQELLREEALRRAEAEAFRYALELLAEKFPEQKEYLLDLAEEIESQIRFLSGVDVEDVRKFLDKEWAWVKELLAEHPAELAEVEAARAARLAELRAEVEAKVAA :: 0.368

This collection of values is drawn from paper PMC12416549.
